We begin with a simple list: items and their reported IC50.
Molecular target: BuChE (equine serum lyophilized) (Equus caballus)
Construct: purchased Sigma-Aldrich (Taufkirchen, Germany); host or cells: equine serum
Sequence (P81908 whole entry): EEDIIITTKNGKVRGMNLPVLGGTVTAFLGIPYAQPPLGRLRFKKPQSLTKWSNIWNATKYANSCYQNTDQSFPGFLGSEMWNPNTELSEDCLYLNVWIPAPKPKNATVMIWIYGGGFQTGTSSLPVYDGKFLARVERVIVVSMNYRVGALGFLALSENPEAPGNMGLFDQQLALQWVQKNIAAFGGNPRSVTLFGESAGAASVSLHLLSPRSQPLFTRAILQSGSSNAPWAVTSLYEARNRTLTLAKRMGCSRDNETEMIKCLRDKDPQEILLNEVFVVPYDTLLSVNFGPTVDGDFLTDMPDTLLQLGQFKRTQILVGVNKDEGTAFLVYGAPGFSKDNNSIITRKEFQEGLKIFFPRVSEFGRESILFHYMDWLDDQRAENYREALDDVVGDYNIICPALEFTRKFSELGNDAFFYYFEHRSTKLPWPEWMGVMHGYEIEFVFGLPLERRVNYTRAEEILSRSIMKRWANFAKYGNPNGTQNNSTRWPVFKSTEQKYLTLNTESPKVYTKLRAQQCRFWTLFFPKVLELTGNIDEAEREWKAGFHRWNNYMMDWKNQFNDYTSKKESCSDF
Experiment: biochemical
Settings: triplicate; read-out: BChE IC50 (converted)

These recorded examples may help you get a feel for the data.
compound="O=c1cc(-c2ccc(Cl)c(Cl)c2)oc2ccccc12 [Compound F4]" endpoint_result="418 µM"
compound="O=c1cc(-c2ccc(Cl)cc2Cl)oc2ccccc12 [Compound F2]" endpoint_result="361 µM"
compound="O=c1cc(-c2cc(Cl)ccc2Cl)oc2ccccc12 [Compound F5]" endpoint_result="376 µM"
compound="O=c1cc(-c2ccc(Cl)cc2)oc2ccccc12 [Compound F1]" endpoint_result="603 µM"

Query compound follows.
INPUT: Look at this compound and give its reported IC50. O=c1cc(-c2cccc(Cl)c2Cl)oc2ccccc12 [Compound F3]
OUTPUT: 505 µM
